- protocol_notes: BET inhibitor-based combinations targeting novel dependencies in MECOM-rearranged (r) AML: MV-4-11 cell line (AID 2202233); also: nearly all actives have a fitted effect of over 45% in size
- experimental_context: MV-4-11 AML viability, CellTiter-Glo luminescence, 48 h; series mostly up to 46 µM
Inconclusive results are not listed. Calls of active or inactive are those of the source. Calls follow the shape of the dose curve; as a rule, active = well fitted inhibition curve with a large enough effect; inconclusive = small, poorly fitted or top-dose-only effect; inactive = no such curve, though single readings can be large or run the other way.
Outcomes: true (1) (active), false (0) (inactive)

{"compound": "CC1(C)CC(O)CC(C)(C)N1O", "group": "false (0)"}
{"compound": "CNCC(O)c1ccc(O)cc1 (centres undefined)", "group": "false (0)"}
{"compound": "C[C@H]1[C@H](O)[C@@H](C)/C=C/C=C/CC/C=C/C=C/C=C/C=C/[C@H](O[C@@H]2O[C@H](C)[C@@H](O)[C@H](N)[C@@H]2O)C[C@@H]2O[C@](O)(C[C@@H](O)[C@H](O)CC[C@@H](O)C[C@@H](O)C[C@@H](O)CC(=O)O[C@H]1C)C[C@H](O)[C@H]2C(=O)O", "group": "false (0)"}
{"compound": "C[C@@H]1CC[C@@]2(OC1)O[C@H]1C[C@H]3[C@@H]4CC=C5C[C@@H](O[C@@H]6O[C@H](CO)[C@@H](O[C@@H]7O[C@@H](C)[C@H](O)[C@@H](O)[C@H]7O)[C@H](O)[C@H]6O[C@@H]6O[C@@H](C)[C@H](O)[C@@H](O)[C@H]6O)CC[C@]5(C)[C@H]4CC[C@]3(C)[C@H]1[C@@H]2C", "group": "true (1)"}
{"compound": "CCOP(=O)(OCC)C(C)NC(=O)N(CCCl)N=O (centres undefined)", "group": "false (0)"}
{"compound": "CCN1C[C@]2(OC(=O)c3ccccc3NC(C)=O)CC[C@H](OC)[C@@]34[C@H]5CC6[C@@H](OC)C[C@](O)(C(C[C@@H]23)[C@@H]14)[C@@]5(O)[C@@H]6OC", "group": "false (0)"}
{"compound": "O=S(=O)(CC1CS1)c1ccc(Oc2ccccc2)cc1 (centres undefined)", "group": "true (1)"}
{"compound": "O=C(O)CCCc1ccc(N(CCCl)CCCl)cc1", "group": "false (0)"}
{"compound": "CO/C1=C/C(C)=C\\[C@@H](C)[C@@H](O)[C@@H](C)C/C(C)=C\\C=C/[C@H](OC)[C@@H]([C@@H](C)[C@@H](O)[C@H](C)[C@@]2(O)C[C@@H](O)[C@H](C)[C@@H](C(C)C)O2)OC1=O", "group": "true (1)"}
